Test: folding stability dG unfold (combined trypsin and chymotrypsin); higher = more stable
folding stability dG unfold of 4 kcal/mol or higher: yes. Under 4 kcal/mol: no.

polymer-sequence	assigned-label
SAGGSAGGSAGGPTIVLKVSPEELKALEKAGVEIEKIEKNEDGELYITLTPEALKKAGFESAGGSAGGSAGG [r7_587_TrROS_Hall]	no

Is folding stability dG unfold at least 4 kcal/mol? Consider SAGGSEPFTPEDLIRKALPVKPKAVVIPGPVSEEEIKALLDAGIPVVIIGKDGSRAVAVGDEVKPLSAGGSA [r2_33_TrMRF]
no

Is folding stability dG unfold at least 4 kcal/mol? Consider SAGGSAGGSAGGKPKKILNIELVLKGKDGKKYKLKIEIYNYPDKPKIYITFPDGTTIEASAGGSAGGSAGGS [r10_404_TrMRF]
yes

Is folding stability dG unfold at least 4 kcal/mol? Consider SAGGSAGGSPPGWTIMMFEITISITVPRVEVYDPKDGKPRAEVPYVRVSIPIPIFIIFPAGAFSAGGSAGGS [r12_600_TrROS]
no

Is folding stability dG unfold at least 4 kcal/mol? Consider SAGGSAGGSPGMKPVEIPFRNPDGKNWKITSIYVMPDGPAMITIEDPNNGKERQIPAEDIDEFSAGGSAGGS [r12_488_TrROS]
no

Is folding stability dG unfold at least 4 kcal/mol? Consider SAGGSAFRVQTWDDGKPRKIPIGESLDDLKDQIDDNPNYPIYIEFPNGKPFHMPWSDIKNMIDQLKSAGGSA [r15_36_TrROS]
no

---

Each entry below lists one item and its recorded folding stability dG unfold value.
Assay: folding stability dG unfold from trypsin proteolysis; higher = more stable
// units = kcal/mol; emit number, no label

A selection of reference data follows.
polymer-sequence	folding stability dG unfold [kcal/mol]
SAGGSAVIEFELELRTRPDGSVEEEEIIAEARELIEAIPEAENAEILEIRREAFPDGTVRYHVRVRVPSAGG [r13_462_TrMRF]	3.46
SAGGSAGGSSSSSVVTKPLPEEPLLVVTTTLPPSTPPGTTSTTTIIEPETGKVLETTDINIPSSAGGSAGGS [r12_564_JUSTAS]	1.92
SAGMMTVEELKEKLKEAAEKAGVKVKEIKITGPDGKEITVEVDLSEEQLKKLAEELGLEIDEVEVREPSAGG [r19_50_TrROS_Hall]	1.3

Quick note, folding stability dG unfold for SAGGSAGGMYKVTITVTDPATGKTVATETLTLESEEEAKEYVEAVKKELPSSLTVSATITKVPESAGGSAGG [r6_690_JUSTAS] landed at 4.77

Quick note, folding stability dG unfold for SMYTTVTVEVDITLADKTPDGTWTPVGTFPIKVTVTVPESRPEEAREEALARARAEVEAFAASRGLTVVVSA [r9_356_JUSTAS] landed at 1.76

Quick note, folding stability dG unfold for SAGGSAGGSAGGSKKKPPKKITLVVWNEETGELTKVEFDAETKEVKVEKVPIKPGDILLSAGGSAGGSAGGS [r4_409_TrROS_Hall] landed at 1.18

Quick note, folding stability dG unfold for MTEEEVRAEAEARARALAEERGVEITAVDIDGEVEQVVETTTRPTPDGRPVTETTSKKIKTKVRATLRPPRS [r1_91_JUSTAS] landed at -0.107

---

Test: folding stability dG unfold from chymotrypsin proteolysis; higher = more stable
experimental-readout: folding stability dG unfold

A selection of reference data follows.
polymer-sequence	folding stability dG unfold
SKKIIIKITITDPKNKKKIKITEIIFDKKTKKIIIKIEVENVKNKEKLKSKEDVLEAIKKLLEKLGFKPISA [r9_258_TrROS_Hall]	2.47 kcal/mol
SAGITIRLPGAEIEVQRYPHPGNGMPMYRVTVELENPEGKKPKVDVIFPPNQPPGQVENVARYIAKELKSAG [r5_704_TrROS]	-0.302 kcal/mol
SNNKRITIEIPFPMPAEQARNFMEAFGIKKIEYEKHDDPGYYRVKYTVPDDNVTIDIHIFPPPVPPGQKPSA [r9_1090_TrROS]	1.83 kcal/mol

Field: next sequence
Quick note, folding stability dG unfold for SAGPYVMIRIKWPGGEELSIPIPGAKITDVERDGDHITFMFDSPPAAEDIKEEIEDHFPGLKIEIQPIDSAG [r5_453_TrROS] landed at 1.17 kcal/mol

---

Each entry below lists one item and its recorded folding stability dG unfold value.
Experiment: folding stability dG unfold from chymotrypsin proteolysis; higher = more stable
// units = kcal/mol; emit number, no label

A selection of reference data follows.
polymer-sequence	units-symbol	measured-number
SAGGVPLLSAELLTTDETGNRTYRLVYYDPSTGKVYEVVVSQPFPTGDFNPFLFTASSLEEALELVTSSAGG [r13_26_TrMRF]	kcal/mol	2.81
SAGGSAMPPGEPIGSFSFPFNNGGNLMISAYPGGEIKISWWGPDGRPHEHEFPVKVKPPPPEDEGKSAGGSA [r15_478_TrROS]	kcal/mol	1.64
SAGGSAGGVERIKKLLEELGAEVVKVEKLENGKTLIYIKVKSEEQREALKALLPEEDIEIIEPESAGGSAGG [r6_83_TrROS_Hall]	kcal/mol	4.47
SAGGSAGGSAGGSPVIIPDKGYLVVELEEEGLLVVYPLYPDGEIGPAFVRPVHPDVPVLSAGGSAGGSAGGS [r4_409_TrMRF]	kcal/mol	0.982
SAGDVPVPATFEVELPGDGTARVTVVRHPGAAPGGFDTVRVEFRPGPTSSVTLTYRVPPGSAPVPFLGGSAG [r5_47_TrMRF]	kcal/mol	1.33

Quick note, folding stability dG unfold for SAGGSAGGSAVRTIFIPGGNIKDIIELIKSDPGQPVQIHAPDGWVIKITGDKDIDIHPFPDSAGGSAGGSAG [r3_269_TrROS] landed at 0.337

Quick note, folding stability dG unfold for SAGGSAMKPGEPVEFNIMIKIRDPNGKPVGEIDIKVEYPKGQSESQMFDRARNEINNLAPEGHLEISAGGSA [r15_310_TrROS] landed at 0.486

---

Each entry below lists one item and its recorded folding stability dG unfold value.
Assay: folding stability dG unfold from trypsin proteolysis; higher = more stable
// units = kJ/mol; emit number, no label

polymer-sequence	units-symbol	folding stability dG unfold
SAGGSTVTVTVRRRVRVEVNGELREFEVEVTVTVRLPPPPPVIELPPEQVTRIEWDEETQELRVEVDSAGGS [r8_28_TrROS_Hall]	kJ/mol	12.5

Field: next sequence
Quick note, folding stability dG unfold for SAGGSAGGSKPTLTLEIVLPPEMTLEQLEELARALAEELGLDEVEVRVERRPDGYLRITITVKSAGGSAGGS [r20_208_TrROS_Hall] landed at 15.2

---

Test: folding stability dG unfold (combined trypsin and chymotrypsin); higher = more stable
In this scheme, each record receives a class according to its folding stability dG unfold; the ranges are lower band = under 0.2 kcal/mol, central band = from 0.2 kcal/mol up to 2 kcal/mol, upper band = 2 kcal/mol and over

polymer-sequence	assigned-label
SAGMMLIEVEKNGEPVEVAEVKDDEITITLPKEKVRIRIVNADTGEEVEAEATVEDGTITIKLPPGVKLSAG [r5_469_TrROS_Hall]	central band
SAGGMPKLTVTITFEPPDGSTTTTRDFTSVEEAIEALRAVPDIPVEPLEDDVIRARRPDSETTVTIVESAGG [r13_143_JUSTAS]	lower band
SAGGSAGGSMKTVEIELVNKETGKKVTITVNDGKVTIRITNPDGEEKELEFPSLEEALEALLSSAGGSAGGS [r12_511_TrROS_Hall]	upper band
SAGGASTVEYEITLPLDPSGSVDPDTIRAAAEAIAAADPDFVDHRIEEITITRLPDGTVRFTVTISVPSAGG [r13_462_JUSTAS]	upper band
SAGGSAGGSAPGQKFPIKEVYWNDGRLAIKVEDNGEEQIIPVGAKIEDDDDGEIKIKLLPPPSAGGSAGGSA [r18_468_TrROS]	lower band
SIITINFHPGMFHISIYKDGGEKTIPMPWSEIKELLKKGVDKVEIHSPDPGFMNEFQKLVQKEGIPIEIHSA [r9_810_TrROS]	central band
SAGGSAGGSAGITIEFPEEENNFRVENPNDGKKHEIPGTPDEIKEYALDKFPGRPIKIHPSAGGSAGGSAGG [r11_614_TrROS]	lower band
SAGRIYVDPNMVVIEIKYPDKPMPIIIPFKDPEDQEMAKELVKKIMRYLRNEGLPVEVEVEVFPPGQPVSAG [r5_823_TrROS]	upper band
SSFKLYKRPDGSPYLTAPVPEKNLKSALDPSTGVPYIATTPGGELGALSLLADSLEELLKLPPLTFTKPGSA [r9_205_JUSTAS]	lower band
SAGGSLVTELIENNPEFQALLESGTTLKVTFPGGLSGEIEVKNKSPEEIEKAILARNPGPVEIEITGSAGGS [r16_655_JUSTAS]	lower band

Which class is correct for the following sequence? SAGGSAGGSAGGLADLLKGKTFTVTFPEGDKPYPATFEPTADDTVRVGFPDGDSYPVPAAYQSAGGSAGGSA [r18_169_TrMRF]
lower band

Which class is correct for the following sequence? SAGGSSPPGVKVEVTVEVTYIPSKGGYKLTFYRPGGEKVDTKELEKDKLEEAKEELKAKGFDVVKIKKSAGG [r13_765_JUSTAS]
central band

Which class is correct for the following sequence? SAGGSAGGSAGGSGMMVPTTVTITVPAPDGTPVRTVTITTTSPTATLEEIKARVAPFLASAGGSAGGSAGGS [r4_375_JUSTAS]
lower band

Which class is correct for the following sequence? SAGGSAGGKRTVQIQFPMGPQWLDKLRDAFPNVDIEELEYDEGPGWHRIKIKVDSPEKIRDFIKSAGGSAGG [r6_334_TrROS]
central band
